# System: NCI-H23 lung
# experiment-summary: NCI-60 one-dose screen, 48 h (100 = growth as untreated, 0 = no growth, -100 = all killed)
# run-conditions: 10 µM unless noted
# Procedure: Growth inhibition of the NCI-H23 human Non-Small Cell Lung tumor cell line is measured as a screen for anti-cancer activity. Cells are grown in 96 well plates and exposed to the test compound for 48 hours. Compounds are tested at a single concentration, which is 10^-5 M for most compounds. The reported endpoint is percent growth (GI% or GIPRCNT), where numbers from 0 - 100% represent growth inhibition, and numbers from -100% - 0 represent cell death. […]
This is part of a sample that, as a whole, favours compounds with a hit. Of some 83,000 tested, about 20% had one in any assay. Activity calls are given as the source filed them. How the source made its calls: active means growth percent below 10; inactive means the rest.
measurement-type: growth

C=CC(=O)NC(O)C(Cl)(Cl)Cl (stereo not given) yielded growth of 105% (inactive)

CCCCNCCc1ccccn1 yielded growth of 99.9% (inactive)

O=C(NCCNC(=O)c1ccc([As](O)O)cc1)c1ccc([As](O)O)cc1 yielded growth of 93% (inactive)

ClCCN(CCCl)c1ccc(C=NCCc2c[nH]c3ccccc23)cc1 yielded growth of 71.7% (inactive)

CNc1ccc(C(=O)CC(O)CCC(C)C2OC(=O)CC(O)CC(=O)CC(O)CC(O)CC(O)CC(O)CC3(O)CC(O)C(C(=O)OC)C(CC(O[C@@H]4O[C@H](C)[C@@H](O)[C@H](N)[C@@H]4O)/C=C/C=C/C=C/C=C/C=C/C=C/C=C/C2C)O3)cc1 (stereo not given in full) yielded growth of -54.5% (active)

CN1C(=O)NC(=O)C(N=Nc2ccc(Cl)cc2)C1=O (stereo not given) yielded growth of 95.3% (inactive)

CCOC(=O)c1cnc(SCc2ccc(Cl)c(Cl)c2)nc1N1CC1 yielded growth of 51.1% (inactive)

O=C(/C=C/c1ccccc1)N[C@@H](CO)Cc1cnc[nH]1 yielded growth of 113% (inactive)

ClCCN(CCCl)c1nc(Cl)c(C2CC(c3ccccc3)=NN2c2ccccc2)s1 (stereo not given) yielded growth of 86.8% (inactive)

CC(=O)[O][Hg][c]1nc2c(c(=O)n(C)c(=O)n2C)n1C yielded growth of 106% (inactive)

----------
# System: HOP-62 NSCLC
# experiment-summary: NCI-60 one-dose screen, 48 h
# run-conditions: 10 µM unless noted
The panel holds about 83,000 compounds, 20% with a hit somewhere; the sample as a whole holds those more often. Active and inactive are the calls of the source. The calls were made as follows: active = growth percent below 10; inactive = the rest.
Answer with one of the outcomes given here: active, inactive

Please share the test call associated with Cc1ccc(N)cc1[As]=[As]c1cc(N)ccc1C (stereo not given) . inactive

Please share the test call associated with O=C(O)c1nn(Cc2ccc(Cl)cc2)c2ccccc12 . inactive

Please share the test call associated with Cn1cnnc1[S-].[Au+].c1ccc([PH+](c2ccccc2)c2ccccc2)cc1 . inactive

Please share the test call associated with O=C(O)c1cccc(CCl)c1 . inactive

Please share the test call associated with CC1(CF)NC(=O)NC1=O (stereo not given) . inactive

Please share the test call associated with OB([O][Hg][c]1ccccc1)[O][Hg][c]1ccccc1 . active

Please share the test call associated with [Cl][Hg][n]1cnc2c(Cl)c(Cl)c(Cl)cc21 . inactive

Please share the test call associated with COC(=O)C[Se]C(=O)c1ccccc1OC(C)=O . inactive

Please share the test call associated with COC(=O)C(=[N+]=[N-])C(=O)OC . inactive

Please share the test call associated with CNC(=O)Oc1cccc(N(C)C)c1 . inactive

Please share the test call associated with CC[C@@H](C)/C=C(C)/C=C/C(=O)c1c(O)c(-c2ccc(O)cc2)cn(O)c1=O . active

Please share the test call associated with COc1ccccc1N1CCN(CCc2c[nH]c3cc4c(cc23)OCO4)CC1 . inactive

Please share the test call associated with O=C1NC(=O)C(O)(C2(O)C(=O)NC(=O)NC2=O)C(=O)N1 . inactive

Please share the test call associated with COc1cc(C2(C#N)CCN(C)CC2)cc(OC)c1OC . inactive

Please share the test call associated with CCC[CH2][Sn]([CH2]CCC)([CH2]CCC)[O]C(=O)CC . active

Please share the test call associated with CCC(/C=C(C)/C=C/C(=O)c1c(O)c(-c2ccc(O)cc2)c[nH]c1=O)CO (stereo not given) . inactive

Please share the test call associated with COc1ccc(C2SCC(=O)Nc3c2c(C)nn3-c2nc3ccc(C)cc3s2)cc1O (stereo not given) . inactive

Please share the test call associated with O=C1C=CC(=O)C2C1C1(Cl)C(Cl)=C(Cl)C2(Cl)C1(Cl)Cl (stereo not given) . inactive

Please share the test call associated with Cc1cccc(N(C)c2cccc3c2C(=O)[Se]C3)c1C . inactive

Please share the test call associated with CCCCCCCC(=O)OCC/C=C/C1OC1C1OC(=O)/C=C\C=C\c2nc(oc2C)/C=C(/C)CCC2OC2C1OC(=O)NC(C)=O (stereo not given) . active

Please share the test call associated with Oc1ccc(O)c2c1C1(Cl)C(Cl)=C(Cl)C2(Cl)C1(Cl)Cl . inactive

Please share the test call associated with CCCCOC(=O)c1ccccc1C(=O)O.CCCCOC(=O)c1ccccc1C(=O)O.[Cu+2] . inactive

Please share the test call associated with O=[N+]([O-])c1ccc(F)c([N+](=O)[O-])c1F . inactive

Please share the test call associated with CCC(CC)(c1ccccc1)C(OC(N)=O)c1ccccc1 (stereo not given) . inactive

Please share the test call associated with O=C(O)CC(Br)C(=O)CBr (stereo not given) . inactive

Please share the test call associated with CC1COC(=O)C1 (stereo not given) . inactive

Please share the test call associated with O=S(=O)(Cl)c1ccccc1 (tested in a mixture with another compound) . inactive

Please share the test call associated with O=C(C(=O)N1CCCC1)c1cn(CCCCCn2cc(C(=O)C(=O)N3CCCC3)c3ccccc32)c2ccccc12 . inactive

Please share the test call associated with Nc1ncnc2c1c(C(=O)NO)cn2C1OC(CO)C(O)C1O (stereo not given) . active

Please share the test call associated with O=C1NC(=O)C(CN2C(=O)C3(c4ccccc42)[C@H](Cl)C(=O)N3c2ccccc2)C(=O)N1 (stereo not given in full) . inactive

Please share the test call associated with Cc1ccccc1O . inactive

Please share the test call associated with OC1(c2ccc(Cl)cc2Cl)c2ccccc2C2=NCCN21 (stereo not given) . inactive

Please share the test call associated with CC(C)N=C(NC(C)C)N1CC1 . inactive

Please share the test call associated with C#CC1(O)CCC2(C)C(CCC3C4CCC(=O)C4(C)CCC32)C1 (stereo not given) . inactive

Please share the test call associated with CC(/C=N/N=C(N)N)=N/N=C(N)N . inactive

Please share the test call associated with NC(Cc1ccc2c(c1)OCO2)c1ccc2c(c1)OCO2 (stereo not given) . inactive

Please share the test call associated with CCOC(=O)c1cnc(SCc2ccc(Cl)c(Cl)c2)nc1N1CC1 . inactive

Please share the test call associated with C=CCN1C(=O)C(CC)(CCC(C)C)C(=O)NC1=S (stereo not given) . inactive

Please share the test call associated with NC(=O)SCC(=O)Nc1ccc([As](=O)(O)O)cc1 . inactive

Please share the test call associated with CC1(C)CC2(CC(C)(C)c3cc(O)c(O)cc32)c2cc(O)c(O)cc21 . inactive

Please share the test call associated with C[C@]12CC[C@H]3[C@@H](C[C@@H]4N=C(c5ccc(O)cc5)S[C@@]45C[C@H](O)CC[C@]35C)[C@@H]1CC[C@@H]2O . inactive

Please share the test call associated with CO[C@@H](c1ccccc1Cl)[C@H](C)OC(N)=O . inactive

Please share the test call associated with CCOCC1(CCc2ccccc2)C(=O)NC(=S)NC1=O . inactive

Please share the test call associated with CNc1ccc(C(=O)CC(O)CCC(C)C2OC(=O)CC(O)CC(=O)CC(O)CC(O)CC(O)CC(O)CC3(O)CC(O)C(C(=O)OC)C(CC(O[C@@H]4O[C@H](C)[C@@H](O)[C@H](N)[C@@H]4O)/C=C/C=C/C=C/C=C/C=C/C=C/C=C/C2C)O3)cc1 (stereo not given in full) . active

Please share the test call associated with CCOC(=O)C1(c2ccccc2)CCN(CC(=O)c2ccc(NC(C)=O)cc2)CC1 . inactive
